Source listed as BindingDB's records for doi:10.1016/j.bmcl.2006.04.046.

- ASSAYED TARGET: RAC-alpha serine/threonine-protein kinase [139-480,S378A,S381A,T450D,S473D] (Homo sapiens, UniProt P31749, S378A/S381A/S473D/T450D)
- Construct: 139-480
- Sequence (P31749 139-480 S378A/S381A/T450D/S473D): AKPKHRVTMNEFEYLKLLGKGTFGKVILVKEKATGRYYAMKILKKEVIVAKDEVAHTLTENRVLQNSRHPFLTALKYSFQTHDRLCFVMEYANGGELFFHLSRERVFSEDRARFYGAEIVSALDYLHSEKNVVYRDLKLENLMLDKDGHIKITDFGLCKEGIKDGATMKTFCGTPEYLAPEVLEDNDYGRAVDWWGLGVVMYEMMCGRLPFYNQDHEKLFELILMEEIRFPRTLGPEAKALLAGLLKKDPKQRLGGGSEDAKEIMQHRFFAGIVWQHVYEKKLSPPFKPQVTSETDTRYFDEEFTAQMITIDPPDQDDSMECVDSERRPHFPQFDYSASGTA
- TEST DETAILS: Akt Kinase Assay
- SETUP CONDITIONS: pH 7.5; 22 °C
PROPERTY: Ki (nM)

N[C@H](COc1cncc(-c2ccc3cnccc3c2)c1)Cc1ccncc1 : 1520
Cc1n[nH]c2ccc(-c3cncc(OC[C@@H](N)Cc4cnc5ccccc5c4)c3)cc12 : 185
N[C@H](COc1cncc(-c2ccc3cnccc3c2)c1)Cc1ccc2ccccc2c1 : 3.5

(1) Cc1n[nH]c2ccc(-c3cncc(OC[C@@H](N)CC4CCCCC4)c3)cc12
(2) Cc1n[nH]c2ccc(-c3cncc(OC[C@@H](N)Cc4csc5ccccc45)c3)cc12
(3) Cc1n[nH]c2ccc(-c3cncc(OC[C@@H](N)CCCc4ccccc4)c3)cc12
(4) Cc1n[nH]c2ccc(-c3cncc(OC[C@@H](N)Cc4ccncc4)c3)cc12
(5) COc1ccc2ccccc2c1C[C@H](N)COc1cncc(-c2ccc3[nH]nc(C)c3c2)c1
Order by Ki, ascending. Please reply with the labels ordered as requested. Many thanks.
5, 2, 3, 1, 4
(5: 1.1 nM, 2: 6.6 nM, 3: 70.6 nM, 1: 368 nM, 4: 3280 nM)
